Experiment: Lipophilicity, log D of the compound at 100 uM at pH 7 by HPLC/DAD analysis
Assay type: physicochemical
Conditions: buffer

Mol	logD at 100 µM
N#C[C@H]1CCOC[C@@H]1n1cc(C(N)=O)c(Nc2ccccc2)n1	2.08
C[C@@H]1NS(=O)(=O)c2ccc(Nc3nn([C@H]4COCC[C@@H]4C#N)cc3C(N)=O)cc21	3.15
COc1cc(Nc2nn([C@H]3COCC[C@@H]3C#N)cc2C(N)=O)ccc1Cl	2.34
N#Cc1ccc(Nc2nn([C@H]3COCC[C@@H]3C#N)cc2C(N)=O)cc1Cl	2.18
N#C[C@H]1CCOC[C@@H]1n1cc(C(N)=O)c(Nc2ccnc(F)c2)n1	1.18
N#C[C@H]1CCOC[C@@H]1n1cc(C(N)=O)c(Nc2ccc(C3CC3)cc2)n1	2.58
COc1cc(Nc2nn([C@H]3COCC[C@@H]3C#N)cc2C(N)=O)ccc1C#N	1.87
N#C[C@H]1C[C@@H](N2CCC2)CC[C@@H]1n1cc(C(N)=O)c(Nc2ccc([C@H](O)C(F)(F)F)cc2)n1	1.54
N#C[C@H]1CCOC[C@@H]1n1cc(C(N)=O)c(Nc2ccc(-n3ccnn3)cc2)n1	1
COc1cc(Nc2nn([C@H]3COCC[C@@H]3C#N)cc2C(N)=O)cc(F)n1	1.89
N#C[C@H]1CCCC[C@@H]1n1cc(C(N)=O)c(Nc2ccccc2)n1	2.66
Cc1ncnc2ccc(Nc3nn([C@H]4COCC[C@@H]4C#N)cc3C(N)=O)cc12	1.02
N#Cc1ccc(Nc2nn([C@H]3COCC[C@@H]3C#N)cc2C(N)=O)cc1C1CC1	2.34
N#C[C@H]1CCOC[C@@H]1n1cc(C(N)=O)c(Nc2ccc([C@H](O)C(F)(F)F)cc2)n1	1.93
COc1ccnc2c(F)cc(Nc3nn([C@H]4COCC[C@@H]4C#N)cc3C(N)=O)cc12	1.4
N#Cc1ccc(Nc2nn([C@H]3COCC[C@@H]3C#N)cc2C(N)=O)cc1	1.77
N#C[C@H]1CCOC[C@@H]1n1cc(C(N)=O)c(Nc2ccc(F)cc2)n1	2.18
CN(C)c1cc(Nc2nn([C@H]3COCC[C@@H]3C#N)cc2C(N)=O)cc(F)n1	2.07
N#C[C@H]1CCOC[C@@H]1n1cc(C(N)=O)c(Nc2ccc(OC(F)F)cc2)n1	2.27

###

pIC50: −log10 of the molar value.
Tyrosine-protein kinase JAK2 (Homo sapiens): reported pIC50 for various molecules.
Sequence (O60674 whole entry): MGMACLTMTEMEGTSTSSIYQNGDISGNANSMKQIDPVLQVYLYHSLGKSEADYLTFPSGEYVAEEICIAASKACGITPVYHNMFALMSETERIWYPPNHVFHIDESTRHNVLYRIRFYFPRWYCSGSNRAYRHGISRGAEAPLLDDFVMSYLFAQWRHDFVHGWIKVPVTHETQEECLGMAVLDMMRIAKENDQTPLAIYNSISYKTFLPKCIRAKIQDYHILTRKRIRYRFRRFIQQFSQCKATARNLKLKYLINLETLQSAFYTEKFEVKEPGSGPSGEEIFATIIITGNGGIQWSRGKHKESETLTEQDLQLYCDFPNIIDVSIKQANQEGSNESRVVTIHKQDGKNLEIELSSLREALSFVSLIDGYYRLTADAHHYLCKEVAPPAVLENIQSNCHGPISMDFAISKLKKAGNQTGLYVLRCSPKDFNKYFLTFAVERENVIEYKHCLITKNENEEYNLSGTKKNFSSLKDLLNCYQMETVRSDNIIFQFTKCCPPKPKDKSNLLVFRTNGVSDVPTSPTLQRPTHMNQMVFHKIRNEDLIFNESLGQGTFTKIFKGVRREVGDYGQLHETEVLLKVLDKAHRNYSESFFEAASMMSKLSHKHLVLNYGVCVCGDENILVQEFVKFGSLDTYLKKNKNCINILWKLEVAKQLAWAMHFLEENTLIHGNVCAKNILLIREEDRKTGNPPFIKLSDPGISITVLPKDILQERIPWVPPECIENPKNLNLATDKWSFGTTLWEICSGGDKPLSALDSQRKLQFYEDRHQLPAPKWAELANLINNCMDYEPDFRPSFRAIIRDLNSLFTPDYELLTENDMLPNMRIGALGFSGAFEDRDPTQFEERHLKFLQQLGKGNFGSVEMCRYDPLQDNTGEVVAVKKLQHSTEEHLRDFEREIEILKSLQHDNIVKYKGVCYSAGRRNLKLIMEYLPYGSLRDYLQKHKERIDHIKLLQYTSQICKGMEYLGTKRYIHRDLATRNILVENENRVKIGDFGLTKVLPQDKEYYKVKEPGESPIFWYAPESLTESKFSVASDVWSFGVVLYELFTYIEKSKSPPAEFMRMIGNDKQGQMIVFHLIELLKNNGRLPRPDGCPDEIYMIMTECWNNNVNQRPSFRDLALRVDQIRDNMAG

Mol	pIC50
N#Cc1ccc(Nc2nn([C@H]3COCC[C@@H]3C#N)cc2C(N)=O)cc1Cl	8.57
Cc1ncnc2ccc(Nc3nn([C@H]4COCC[C@@H]4C#N)cc3C(N)=O)cc12	8.15
COc1cc(Nc2nn([C@H]3COCC[C@@H]3C#N)cc2C(N)=O)ccc1C#N	8.49
C[C@@H]1NS(=O)(=O)c2ccc(Nc3nn([C@H]4COCC[C@@H]4C#N)cc3C(N)=O)cc21	8.70
N#Cc1ccc(Nc2nn([C@H]3COCC[C@@H]3C#N)cc2C(N)=O)cc1	8.92
N#Cc1ccc(Nc2nn([C@H]3COCC[C@@H]3C#N)cc2C(N)=O)cc1C#N	8.30
COc1ccnc2c(F)cc(Nc3nn([C@H]4COCC[C@@H]4C#N)cc3C(N)=O)cc12	8.00
N#C[C@H]1CCOC[C@@H]1n1cc(C(N)=O)c(Nc2cc(F)c3nccc(Cl)c3c2)n1	8.15
N#C[C@H]1CCOC[C@@H]1n1cc(C(N)=O)c(Nc2ccc(C3CC3)cc2)n1	8.72
N#C[C@H]1CCOC[C@@H]1n1cc(C(N)=O)c(Nc2ccc(F)cc2)n1	8.70
N#Cc1ccc(Nc2nn([C@H]3COCC[C@@H]3C#N)cc2C(N)=O)cc1C1CC1	7.80
N#C[C@H]1CCOC[C@@H]1n1cc(C(N)=O)c(Nc2ccc(-n3ccnn3)cc2)n1	9.15
CN(C)c1cc(Nc2nn([C@H]3COCC[C@@H]3C#N)cc2C(N)=O)cc(F)n1	8.47
N#C[C@H]1CCOC[C@@H]1n1cc(C(N)=O)c(Nc2ccc(OC(F)F)cc2)n1	9.10
Cn1cc(-c2ccc(Nc3nn([C@H]4COCC[C@@H]4C#N)cc3C(N)=O)cc2)cn1	9.30
